Target: UniProt P08709
Counter-ions that a name gives are not always drawn.
Field: pIC50. Provide a value for each of the compounds that follow.
Schema: pIC50 number; meaning minus log10 of the concentration expressed in molar units.

Query block: Write down pIC50 measured for item CCc1cc(C(Nc2ccc(C(=N)N)cc2)c2nn(-c3ncccn3)c(=O)[nH]2)cc2c1OCOC2 (racemic) [Example 27, acetate]
Result block: 8.51

Query block: Write down pIC50 measured for item COc1cc(C(Nc2ccc(C(=N)N)cc2)c2nn(-c3ncccn3)c(=O)[nH]2)cc2c1OCC2 (racemic) [Example 31, acetate]
Result block: 8.15

Query block: Write down pIC50 measured for item COc1cc(OCCCO)c(F)c(C(Nc2ccc(C(=N)N)cc2)c2nn(-c3ncccn3)c(=O)[nH]2)c1 (racemic) [Example 229, acetate]
Result block: 8.29

Query block: Write down pIC50 measured for item COc1cc(C(Nc2ccc(C(=N)N)cc2)c2nn(-c3ncccn3)c(=O)[nH]2)c(F)c2c1OCCC2 (racemic) [Example 33, acetate]
Result block: 8.17

Query block: Write down pIC50 measured for item COc1ccccc1-n1nc(C(Nc2ccc(C(=N)N)cc2)c2cc3c(c(OC)c2)OCOC3)[nH]c1=O (racemic) [Example 95, acetate]
Result block: 8.89

Query block: Write down pIC50 measured for item CCc1cc(OCCCO)c(F)c(C(Nc2ccc(C(=N)N)cc2)c2nn(-c3ncccc3N)c(=O)[nH]2)c1 (racemic) [Example 205, acetate]
Result block: 8.64

Query block: Write down pIC50 measured for item COc1cc(OCCF)c(F)c(C(Nc2ccc(C(=N)N)cc2)c2nn(-c3cccc(N)n3)c(=O)[nH]2)c1 (stereo not shown) [Example 51, trifluoroacetate]
Result block: 8.29

Query block: Write down pIC50 measured for item CCOc1ccc(C(Nc2ccc(C(=N)N)cc2)c2nn(-c3ncccn3)c(=O)[nH]2)cc1OC (racemic) [Example 18, acetate]
Result block: 7.81

Query block: Write down pIC50 measured for item Cc1cc(O[C@H]2CCOC2)cc(C(Nc2ccc(C(=N)N)cc2)c2nn(-c3ncccn3)c(=O)[nH]2)c1 (mixture of isomers) [Example 58, acetate]
Result block: 8.47

Query block: Write down pIC50 measured for item COc1cc(OC2CCOCC2)cc(C(Nc2ccc(C(=N)N)cc2)c2nn(-c3ncccn3)c(=O)[nH]2)c1 (racemic) [Example 63, acetate]
Result block: 8.41

Query block: Write down pIC50 measured for item COc1cc(C(Nc2ccc(C(=N)N)cc2)c2nn(-c3ncccn3)c(=O)[nH]2)c(F)c2c1OCCCO2 (racemic) [Example 42, acetate]
Result block: 8.44

Query block: Write down pIC50 measured for item COC(=O)c1sccc1-n1nc(C(Nc2ccc(C(=N)N)cc2)c2cc3c(c(OC)c2)OCOC3)[nH]c1=O (racemic) [Example 152, acetate]
Result block: 8.92

Query block: Write down pIC50 measured for item COc1cc(F)c(C(Nc2ccc(C(=N)N)cc2)c2nn(-c3ncccc3F)c(=O)[nH]2)cc1OC (racemic) [Example 184, acetate]
Result block: 8.17

====

The following are reported log10 of IC50 results, target or system human clotting factor VIIa (Homo sapiens, UniProt P08709).
Where a name gives a salt, the structure may show the parent alone.
Reminder: these figures are log10 of reported IC50, in nM before transformation.

Query block: Fill in log10 of IC50 for COCCOc1c(OC)cc(C(Nc2ccc(C(=N)N)cc2)c2nn(-c3ccccc3OC)c(=O)[nH]2)cc1OC (stereo not drawn) [Example 87, acetate] tested with human clotting factor VIIa (Homo sapiens, UniProt P08709).
Sequence (P08709 213-466 limits assumed): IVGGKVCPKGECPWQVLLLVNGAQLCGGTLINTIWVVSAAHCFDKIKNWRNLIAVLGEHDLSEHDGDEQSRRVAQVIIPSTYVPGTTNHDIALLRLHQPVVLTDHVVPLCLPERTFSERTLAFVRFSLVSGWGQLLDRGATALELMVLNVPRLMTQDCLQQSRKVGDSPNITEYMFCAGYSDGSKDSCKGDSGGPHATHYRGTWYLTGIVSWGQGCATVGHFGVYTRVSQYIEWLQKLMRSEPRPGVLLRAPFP
Sequence (P08709 61-212 limits assumed): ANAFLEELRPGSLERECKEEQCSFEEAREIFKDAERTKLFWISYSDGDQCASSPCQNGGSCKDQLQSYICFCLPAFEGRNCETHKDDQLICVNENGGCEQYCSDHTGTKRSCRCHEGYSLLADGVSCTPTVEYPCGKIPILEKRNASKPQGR
Sequence (P13726 33-295 partner): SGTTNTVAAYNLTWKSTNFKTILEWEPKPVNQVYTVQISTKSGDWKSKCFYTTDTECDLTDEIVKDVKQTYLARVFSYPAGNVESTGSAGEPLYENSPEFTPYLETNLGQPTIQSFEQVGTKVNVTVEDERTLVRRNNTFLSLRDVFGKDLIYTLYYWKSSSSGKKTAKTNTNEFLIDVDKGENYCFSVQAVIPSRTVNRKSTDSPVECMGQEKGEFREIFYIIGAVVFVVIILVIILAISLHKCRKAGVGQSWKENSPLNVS
Result block: 0.62

Query block: Fill in log10 of IC50 for COc1ccc(C(Nc2ccc(C(=N)N)cc2)c2nn(-c3ncsc3C(=O)O)c(=O)[nH]2)cc1OC (racemic) tested with human clotting factor VIIa (Homo sapiens, UniProt P08709).
Result block: 1.20

Query block: Fill in log10 of IC50 for COCCOc1cc(OC)cc(C(Nc2ccc(C(=N)N)cc2)c2nn(-c3ncccc3N)c(=O)[nH]2)c1F (stereo not drawn) [Example 202, acetate] tested with human clotting factor VIIa (Homo sapiens, UniProt P08709).
Result block: 1.08

Query block: Fill in log10 of IC50 for CCOc1cc(C(Nc2ccc(C(=N)N)cc2)c2nn(-c3ncccn3)c(=O)[nH]2)c(F)cc1OC (racemic) [Example 115, acetate] tested with human clotting factor VIIa (Homo sapiens, UniProt P08709).
Result block: 1.06

Query block: Fill in log10 of IC50 for COc1cc(OC)c(F)c(C(Nc2ccc(C(=N)N)cc2)c2nn(-c3cccc(C(=O)O)n3)c(=O)[nH]2)c1 (stereo not drawn) [Example 210, trifluoroacetate] tested with human clotting factor VIIa (Homo sapiens, UniProt P08709).
Result block: 1.59

Query block: Fill in log10 of IC50 for COc1cc(C(Nc2ccc(C(=N)N)cc2)c2nn(-c3ccsc3C(=O)O)c(=O)[nH]2)cnc1OC (racemic) [Example 169, acetate] tested with human clotting factor VIIa (Homo sapiens, UniProt P08709).
Result block: 0.45

====

Target: human clotting factor VIIa (Homo sapiens, UniProt P08709)
pIC50: −log10 of the molar value. Counter-ions that a name gives are not always drawn.
Lab note: anything with pIC50 at or over 8 counts as fulfilled; the rest go in not fulfilled.

Query block: Please indicate if the recorded pIC50 for COc1cc(OCCF)c(F)c(C(Nc2ccc(C(=N)N)cc2)c2nn(-c3cnccn3)c(=O)[nH]2)c1 (racemic) [Example 100, acetate] meets or exceeds 8.
Result block: fulfilled

Query block: Please indicate if the recorded pIC50 for COc1cc(C(Nc2ccc(C(=N)N)cc2)c2nn(-c3ncsc3C(=O)O)c(=O)[nH]2)cc(OCCO)c1OC (racemic) [Example 233] meets or exceeds 8.
Result block: not fulfilled

Query block: Please indicate if the recorded pIC50 for COc1cc(C(Nc2ccc(C(=N)N)cc2)c2nn(-c3ccccc3C(N)=O)c(=O)[nH]2)ccc1OCC(=O)N(C)C (stereo not shown) [Example 105, trifluoroacetate] meets or exceeds 8.
Result block: not fulfilled

Query block: Please indicate if the recorded pIC50 for COc1cc(OCCF)cc(C(Nc2ccc(C(=N)N)cc2)c2nn(-c3cccnn3)c(=O)[nH]2)c1 (racemic) [Example 64, acetate] meets or exceeds 8.
Result block: fulfilled

Query block: Please indicate if the recorded pIC50 for CCOc1cc(C(Nc2ccc(C(=N)N)cc2)c2nn(-c3ccccc3C(=O)O)c(=O)[nH]2)c(F)cc1OC (racemic) [Example 122, acetate] meets or exceeds 8.
Result block: fulfilled

Query block: Please indicate if the recorded pIC50 for COc1cc(F)c(C(Nc2ccc(C(=N)N)cc2)c2nn(-c3ccsc3C(=O)O)c(=O)[nH]2)cc1OC (racemic) [Example 171] meets or exceeds 8.
Result block: fulfilled

====

Structures can show the parent of a compound that is named as a salt.
The following are reported pIC50 results, target or system human clotting factor VIIa (Homo sapiens).
Schema: pIC50 number; meaning minus log10 of the concentration expressed in molar units.

Query block: Write down pIC50 measured for item COc1cc(C(Nc2ccc(C(=N)N)cc2)c2nn(-c3ncccn3)c(=O)[nH]2)c(F)cc1OCCO (racemic) [Example 208, acetate]
Result block: 7.07

Query block: Write down pIC50 measured for item COc1cc(C(Nc2ccc(C(=N)N)cc2)c2nn(-c3ccsc3C(=O)O)c(=O)[nH]2)cc2c1OCOC2 (racemic)
Result block: 8.49

Query block: Write down pIC50 measured for item CCOc1cc(C(Nc2ccc(C(=N)N)cc2)c2nn(-c3ncccn3)c(=O)[nH]2)ccc1OCC#N (stereo not drawn) [Example 114, trifluoroacetate]
Result block: 7.64

Query block: Write down pIC50 measured for item COc1cc(OC)c(F)c(C(Nc2ccc(C(=N)N)cc2)c2nn(-c3ncccc3N)c(=O)[nH]2)c1 (racemic) [Example 137, acetate]
Result block: 7.99

Query block: Write down pIC50 measured for item COc1cc(F)c(C(Nc2ccc(C(=N)N)cc2)c2nn(-c3ccccc3C(N)=O)c(=O)[nH]2)cc1OC (racemic) [Example 109, acetate]
Result block: 8.10

Query block: Write down pIC50 measured for item COc1cc(F)c(C(Nc2ccc(C(=N)N)cc2)c2nn(-c3ncccc3N)c(=O)[nH]2)cc1OC (stereo not drawn) [Example 138, trifluoroacetate]
Result block: 7.77

====

Field: pIC50. Provide a value for each of the compounds that follow.
Where a name gives a salt, the structure may show the parent alone.
Schema: pIC50 number; meaning minus log10 of the concentration expressed in molar units.

Query block: Fill in pIC50 for COc1cc(OCC(F)F)c(F)c(C(Nc2ccc(C(=N)N)cc2)c2nn(-c3ncccn3)c(=O)[nH]2)c1 (racemic) [Example 99, acetate] tested with human clotting factor VIIa (Homo sapiens, UniProt P08709).
Result block: 8.41

Query block: Fill in pIC50 for COc1cc(C(Nc2ccc(C(=N)N)cc2)c2nn(-c3ncccn3)c(=O)[nH]2)cc(CC#N)c1F (racemic) [Example 131, acetate] tested with human clotting factor VIIa (Homo sapiens, UniProt P08709).
Result block: 8.25

Query block: Fill in pIC50 for Cc1cc(O[C@@H]2CCOC2)cc(C(Nc2ccc(C(=N)N)cc2)c2nn(-c3ncccn3)c(=O)[nH]2)c1 (mixture of isomers) [Example 59, acetate] tested with human clotting factor VIIa (Homo sapiens, UniProt P08709).
Result block: 8.35

Query block: Fill in pIC50 for CCOC(=O)c1cn[nH]c1-n1nc(C(Nc2ccc(C(=N)N)cc2)c2cc(OC)c(OC)cc2F)[nH]c1=O (stereo not shown) [Example 157d] tested with human clotting factor VIIa (Homo sapiens, UniProt P08709).
Result block: 8.16

Query block: Fill in pIC50 for COc1cc(O[C@@H]2CCOC2)cc(C(Nc2ccc(C(=N)N)cc2)c2nn(-c3ncccn3)c(=O)[nH]2)c1 (mixture of isomers) [Example 5, acetate] tested with human clotting factor VIIa (Homo sapiens, UniProt P08709).
Result block: 8.31

Query block: Fill in pIC50 for COc1cc(OCCF)c(F)c(C(Nc2ccc(C(=N)N)cc2)c2nn(-c3cccnn3)c(=O)[nH]2)c1 (racemic) [Example 151, acetate] tested with human clotting factor VIIa (Homo sapiens, UniProt P08709).
Result block: 8.27

Query block: Fill in pIC50 for COc1ccccc1-n1nc(C(Nc2ccc(C(=N)N)cc2)c2cc(C)cc(OC)c2F)[nH]c1=O (stereo not shown) [Example 14, trifluoroacetate] tested with human clotting factor VIIa (Homo sapiens, UniProt P08709).
Result block: 8.23

Query block: Fill in pIC50 for COc1cc(OC)cc(C(Nc2ccc(C(=N)N)cc2)c2nn(-c3ncccc3C)c(=O)[nH]2)c1 (racemic) [Example 225, acetate] tested with human clotting factor VIIa (Homo sapiens, UniProt P08709).
Result block: 8.43

Query block: Fill in pIC50 for COc1cc(C(Nc2ccc(C(=N)N)cc2)c2nn(-c3ccccc3C(N)=O)c(=O)[nH]2)cc2c1OCCCO2 (racemic) [Example 214, acetate] tested with human clotting factor VIIa (Homo sapiens, UniProt P08709).
Result block: 8.46

Query block: Fill in pIC50 for COCc1cc(C(Nc2ccc(C(=N)N)cc2)c2nn(-c3ncccn3)c(=O)[nH]2)cc(OC)c1OC (racemic) [Example 22, acetate] tested with human clotting factor VIIa (Homo sapiens, UniProt P08709).
Result block: 8.08

Query block: Fill in pIC50 for COc1cc(C(Nc2ccc(C(=N)N)cc2)c2nn(-c3cnccn3)c(=O)[nH]2)cc2c1OCOC2 (racemic) [Example 102, acetate] tested with human clotting factor VIIa (Homo sapiens, UniProt P08709).
Result block: 7.94

Query block: Fill in pIC50 for CCc1cc(OCCN(C)C)c(F)c(C(Nc2ccc(C(=N)N)cc2)c2nn(-c3ccccc3N)c(=O)[nH]2)c1 (stereo not shown) [Example 139, bistrifluoroacetate] tested with human clotting factor VIIa (Homo sapiens, UniProt P08709).
Result block: 8.42

Query block: Fill in pIC50 for CCc1cc(OC)cc(C(Nc2ccc(C(=N)N)cc2)c2nn(-c3ncccn3)c(=O)[nH]2)c1 (racemic) [Example 75, acetate] tested with human clotting factor VIIa (Homo sapiens, UniProt P08709).
Result block: 8.28

The origin of these recorded values is patent US7816522B2.
